molecular target: HIV-1 integrase (IN) (Human immunodeficiency virus type 1 group M subtype B); assay: In vitro integrase catalytic assay, strand transfer (ST); assay type: biochemical; details: 400 nM IN, 20 nM 32P-labeled pre-cleaved 19T/21B DNA, 37 °C, 2 h
pIC50: −log10 of the molar value. Where a SMILES comes first, the peptide text is derived from it. [ ]: non-standard residue; d: D form. Bpa = N[C@@H](Cc1ccc(C(=O)c2ccccc2)cc1)C(=O)O
Decide by pIC50: equal to or exceeding 5 means 1 (yes), less means 0 (no).

molecule="CC[C@H](C)[C@H](NC(=O)[C@H](CCCNC(=N)N)NC(=O)[C@H](Cc1ccccc1)NC(=O)[C@H](Cc1c[nH]cn1)NC(=O)[C@@H](NC(=O)[C@@H](N)Cc1ccccc1)[C@@H](C)CC)C(=O)N[C@@H](C)C(=O)O [Peptide 2a, FIHFRIA] (H-FIHFRIA-OH)" label="0 (no)"
molecule="CC[C@H](C)[C@H](NC(=O)[C@@H](N)Cc1ccccc1)C(=O)N[C@@H](Cc1c[nH]cn1)C(=O)N[C@@H](Cc1ccccc1)C(=O)N[C@@H](CCCNC(=N)N)C(=O)N[C@@H](C)C(=O)NCC(=O)O [Peptide 3a, FIHFRAG] (H-FIHFRAG-OH)" label="0 (no)"
molecule="CC[C@H](C)[C@H](NC(=O)[C@H](C)N)C(=O)N[C@@H](Cc1c[nH]cn1)C(=O)N[C@@H](Cc1ccccc1)C(=O)N[C@@H](CCCNC(=N)N)C(=O)N[C@H](C(=O)NCC(N)=O)[C@@H](C)CC [Peptide 8b, AIHFRIG-amide] (H-AIHFRIG-NH2)" label="0 (no)"
molecule="CC[C@H](C)[C@H](NC(=O)[C@H](CCCNC(=N)N)NC(=O)[C@H](Cc1ccccc1)NC(=O)[C@H](C)NC(=O)[C@@H](NC(=O)[C@@H](N)Cc1ccccc1)[C@@H](C)CC)C(=O)NCC(=O)O [Peptide 6a, FIAFRIG] (H-FIAFRIG-OH)" label="1 (yes)"
molecule="CC[C@H](C)[C@H](NC(=O)[C@H](CCCNC(=N)N)NC(=O)[C@H](Cc1ccccc1)NC(=O)[C@H](Cc1ccc(C(=O)c2ccccc2)cc1)NC(=O)[C@@H](NC(=O)[C@@H](N)Cc1ccccc1)[C@@H](C)CC)C(=O)NCC(=O)O [Peptide 12a, FIBFRIG] (H-FI[Bpa]FRIG-OH)" label="1 (yes)"
molecule="CC[C@H](C)[C@H](NC(=O)[C@H](C)N)C(=O)N[C@@H](Cc1c[nH]cn1)C(=O)N[C@@H](Cc1ccccc1)C(=O)N[C@@H](CCCNC(=N)N)C(=O)N[C@H](C(=O)NCC(=O)O)[C@@H](C)CC [Peptide 8a, AIHFRIG] (H-AIHFRIG-OH)" label="0 (no)"
molecule="CC[C@H](C)[C@H](NC(=O)[C@H](CCCNC(=N)N)NC(=O)[C@H](Cc1ccccc1)NC(=O)[C@H](Cc1c[nH]cn1)NC(=O)[C@H](C)NC(=O)[C@@H](N)Cc1ccccc1)C(=O)NCC(N)=O [Peptide 7b, FAHFRIG-amide] (H-FAHFRIG-NH2)" label="0 (no)"
molecule="CC[C@H](C)[C@H](NC(=O)[C@H](CCCNC(=N)N)NC(=O)[C@H](Cc1ccccc1)NC(=O)[C@H](Cc1c[nH]cn1)NC(=O)[C@H](C)NC(=O)[C@@H](N)Cc1ccccc1)C(=O)NCC(=O)O [Peptide 7a, FAHFRIG] (H-FAHFRIG-OH)" label="0 (no)"
